Readings of IC50 for the listed molecules
Tested target: human recombinant TAK1-TAB1 Kinase (TAK1 (1-303) and TAB1 (437-end)) (Homo sapiens (Human), UniProt O43318)
Sequence (O43318 other isoform, or with tags, fused parts or gaps): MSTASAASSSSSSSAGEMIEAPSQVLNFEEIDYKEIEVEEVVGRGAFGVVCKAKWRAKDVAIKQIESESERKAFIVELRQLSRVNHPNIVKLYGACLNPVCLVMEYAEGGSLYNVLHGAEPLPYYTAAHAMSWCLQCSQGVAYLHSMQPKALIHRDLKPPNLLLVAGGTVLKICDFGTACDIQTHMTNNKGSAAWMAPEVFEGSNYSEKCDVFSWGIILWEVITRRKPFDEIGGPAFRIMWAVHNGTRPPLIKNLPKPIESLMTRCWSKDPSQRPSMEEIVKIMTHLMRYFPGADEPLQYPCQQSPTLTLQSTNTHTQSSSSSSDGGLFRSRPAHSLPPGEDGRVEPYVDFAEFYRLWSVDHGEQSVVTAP
Experimental protocol: TAK1 biochemical ADP-Glo kinase assay
Conditions used: 1 mM ATP, MBP substrate; read-out: TAK1 Mean IC50 (nM) @ 1 mM ATP
Experimental: The usefulness of the example compounds of the invention as TAK1 inhibitors was evaluated in a biochemical ADP-Glo kinase assay. Assay kits from Promega Corporation V4089 were used according to manufacturer's instructions and adapted as outlined here. […] One μl of compound solution in 5% DMSO was added to each well in a 384 well microtiter plate (OptiPlate #6007290). […] The plate was incubated for 30 minutes at room temperature in dark before reading luminescence on an Envision (PerkinElmer) reader. […]

| Molecule | IC50 [nM] |
| --- | --- |
| Cc1nnc(-c2cccc3nc4n(c23)[C@H](C)CCCCNC(=O)c2cccc(c2)C(=O)N4)n1C [Example 57] | 6 |
| C[C@H]1CCCCNC(=O)c2cccc(c2)C(=O)/N=C2\Nc3ccnc(N4CCC(F)C4=O)c3N21 (single isomer, unassigned) [Example 126] | 12 |
| C[C@H]1CCCCNC(=O)c2cccc(c2)C(=O)/N=C2\Nc3cccc(C(=O)N4CC(OC(F)(F)F)C4)c3N21 [Example 110] | 26 |
| CC1CCCCNC(=O)c2cccc(c2)C(=O)/N=C2\Nc3cccc(N4CCN(C5CC5)C4=O)c3N21 (single isomer, unassigned) [Example 141] | 15 |
| C[C@H]1CCCCNC(=O)c2cccc(c2)C(=O)NC2Nc3cccc(N4CCCC4=O)c3N21 (some centres unmarked) [Example 113] | 5 |
| C[C@H]1CCCCNC(=O)c2cccc(c2)C(=O)Nc2nc3cccc(-c4ncnn4C)c3n21 [Example 86] | 9 |
| C[C@H]1CCCCNC(=O)c2cccc(c2)C(=O)/N=C2\Nc3cc(CN4CCN(C)CC4)cc(C(=O)N(C)C)c3N21 [Example 124] | 9 |
| C[C@H]1CCCCNC(=O)c2cccc(c2)C(=O)/N=C2\Nc3cccc(C(=O)N4C[C@@H]5C[C@H]4CO5)c3N21 [Example 111] | 24 |
| CC1CCCCNC(=O)c2cccc(c2)C(=O)/N=C2\Nc3cccc(N4CCN(C5CC5)C4=O)c3N21 (single isomer, unassigned) [Example 142] | 8 |
| CN(C)C(=O)c1cccc2c1N1/C(=N/C(=O)c3cccc(c3)C(=O)NCCCCC13CC3)N2 [Example 131] | 13 |
| CC1CCCCNC(=O)c2nc(cs2)C(=O)/N=C2\Nc3cccc(C(=O)N(C)C)c3N21 (single isomer, unassigned) [Example 108] | 23 |
| C[C@H]1CCCCNC(=O)c2cccc(c2)C(=O)/N=C2\Nc3ccnc(N4CCC(F)C4=O)c3N21 (single isomer, unassigned) [Example 127] | 18 |
| [2H]C([2H])([2H])N(C(=O)c1cccc2c1N1/C(=N/C(=O)c3cccc(c3)C(=O)NCCCC[C@@H]1C)N2)C([2H])([2H])[2H] [Example 118] | 15 |
| CCCn1c(NC(=O)c2cccc(C(N)=O)c2)nc2ccccc21 [takinib, reference compound] | 280 |
| C[C@H]1CCCCNC(=O)c2cccc(c2)C(=O)/N=C2\Nc3ccnc(N4CCCC4=O)c3N21 [Example 119] | 22 |
| C[C@H]1CCCCNC(=O)c2cccc(c2)C(=O)/N=C2\Nc3ccnc(N4CCN(C5CC5)C4=O)c3N21 [Example 122] | 57 |
| O=C1NCCOCCn2c(nc3ccccc32)NC(=O)c2cccc1c2 [Example 5] | 247 |

* * *

// IC50 lookup, one value per entry
Tested target: human recombinant TAK1-TAB1 Kinase (TAK1 (1-303) and TAB1 (437-end)) (Homo sapiens (Human))
Experimental protocol: TAK1 biochemical ADP-Glo kinase assay
Conditions used: 10 μM ATP, MBP substrate; read-out: TAK1 Mean IC50 (nM) @ 10 μM ATP
Recorded endpoint: IC50 (nM)

| Compound | Unit name | Obs value |
| --- | --- | --- |
| C[C@@H]1CCCCNC(=O)c2cccc(c2)C(=O)Nc2nc3ccc(Cl)c(C(=O)N(C)C)c3n21 [Example 55] | nM | 6 |
| C[C@@H]1CCCCNC(=O)c2cccc(c2)C(=O)/N=C2\Nc3cccc(C(=O)N4CC(C)(O)C4)c3N21 | nM | 5 |
| CC(=O)Nc1cccc2c1N1/C(=N/C(=O)c3cccc(c3)C(=O)NCCCCC1C)N2 (stereo not shown) | nM | 4 |
| C[C@H]1CCCCNC(=O)c2cccc(c2)C(=O)Nc2nc3ccc(Cl)c(C(=O)N(C)C)c3n21 (single isomer, unassigned) [Example 54] | nM | 8 |
| C[C@H]1CCCCNC(=O)c2cccc(c2)C(=O)/N=C2\Nc3ccnc(N4CCC(F)C4=O)c3N21 (single isomer, unassigned) [Example 126] | nM | 4 |
| CN1CCN(C(=O)c2cccc3nc4n(c23)CCCCCNC(=O)c2cccc(c2)C(=O)N4)CC1 | nM | 11 |
| CC1CCCCNC(=O)c2cccc(c2)C(=O)/N=C2\Nc3cccc(C(=O)N4CC[C@H](F)C4)c3N21 (single isomer, unassigned) [Example 88] | nM | 9 |
| C[C@H]1CCCCNC(=O)c2cccc(c2)C(=O)Nc2nc3cccc(-c4ncn(C)n4)c3n21 | nM | 5 |
| Cc1nnc(-c2cccc3c2N2/C(=N/C(=O)c4cccc(c4)C(=O)NCCCC[C@@H]2C)N3)n1C(C)C | nM | 10 |
| C[C@H]1CCCCNC(=O)c2cccc(c2)C(=O)/N=C2\Nc3cccc(N4CCC(F)C4=O)c3N21 (stereo partly shown) | nM | 5 |
| CC1CCCCNC(=O)c2cccc(c2)C(=O)/N=C2\Nc3cccc(C(=O)N(C)C4CCC4)c3N21 (stereo not shown) | nM | 6 |
| CC1CCCCNC(=O)c2cccc(c2)C(=O)/N=C2\Nc3cccc(C(=O)N(C)CCF)c3N21 (single isomer, unassigned) [Example 70] | nM | 5 |
| CN1CCN(Cc2ccc3c(c2)nc2n3CCCCCNC(=O)c3cccc(c3)C(=O)N2)CC1 | nM | 1 |
| C[C@@H]1CCCCNC(=O)c2cccc(c2)C(=O)/N=C2\Nc3cccc(C(=O)N4C[C@H]5C[C@@H]4CN5C)c3N21 | nM | 6 |
| CCCn1c(NC(=O)c2cccc(C(N)=O)c2)nc2ccccc21 [takinib, reference compound] | nM | 17 |
| CC1CCCCNC(=O)c2cccc(c2)C(=O)Nc2nc3cccc(-c4nccn4C(F)F)c3n21 (single isomer, unassigned) [Example 91] | nM | 5 |
